assay: Fluorescence excitation/emission of the styryl dye library compounds; type: physicochemical; details: EX/EM peak no. 1
Readout Type: EX(nm)

>>> recorded_measurement("C[n+]1c(C=Cc2cccc([N+](=O)[O-])c2)ccc2ccccc21.[I-]")
"420-550 nm"
>>> recorded_measurement("COc1ccc2c(ccc(C=Cc3cccc4ccccc34)[n+]2C)c1.[I-]")
"360-440 nm"
>>> recorded_measurement("COc1ccc(C=Cc2cc[n+](C)cc2)c2ccccc12.[I-]")
"430(broad) nm"
>>> recorded_measurement("COc1ccc(C=Cc2ccc3ccccc3[n+]2C)c2ccccc12.[I-]")
"420-520 nm"
>>> recorded_measurement("COc1ccc2ccccc2c1C=Cc1cc[n+](C)c2ccccc12.[I-]")
"450-500 nm"
>>> recorded_measurement("C(=Cc1ccc(OCc2ccccc2)c(OCc2ccccc2)c1)c1cc[n+](C23CC4CC(CC(C4)C2)C3)cc1.[Br-]")
"340-444 nm"
>>> recorded_measurement("C[n+]1ccc(C=Cc2ccccc2F)cc1.[I-]")
"400-420 nm"
>>> recorded_measurement("COc1ccc(C=Cc2cc[n+](C)c(-c3cc(C)ccn3)c2)c2ccccc12.[I-]")
"420-480 nm"
>>> recorded_measurement("Cc1ccnc(-c2cc(/C=C/c3c[nH]c4ccccc34)cc[n+]2C)c1.[I-]")
"420-500 nm"
>>> recorded_measurement("CCc1ccc(C=Cc2ccc(N(C)C)cc2)[n+](C)c1.[I-]")
"460(broad) nm"
>>> recorded_measurement("COc1cc(OC)c(OC)cc1C=Cc1cc[n+](C23CC4CC(CC(C4)C2)C3)cc1.[Br-]")
"400-480 nm"
>>> recorded_measurement("COc1ccc2c(ccc(C=Cc3cccc(Br)c3)[n+]2C)c1.[I-]")
"400(broad) nm"
>>> recorded_measurement("CN(C)c1ccc(C=Cc2cc[n+](C)c3ccccc23)c2ccccc12.[I-]")
"450-550(broad) nm"
>>> recorded_measurement("COc1ccc(C=Cc2cc[n+](C)c(-c3cc(C)ccn3)c2)cc1.[I-]")
"350-450 nm"
>>> recorded_measurement("COc1ccc2c(ccc(C=Cc3ccc4c(c3)Cc3ccccc3-4)[n+]2C)c1.[I-]")
"450(broad) nm"
>>> recorded_measurement("COc1cc(C=Cc2cccc(C)[n+]2C)cc(OC)c1OC.[I-]")
"380 nm"
>>> recorded_measurement("CN(C)c1ccc(C=CC=Cc2cccc[n+]2C)cc1.[I-]")
"520 nm"
>>> recorded_measurement("C[n+]1c(C=Cc2c3ccccc3cc3ccccc23)ccc2ccccc21.[I-]")
"460 nm"
>>> recorded_measurement("C[n+]1c(C=Cc2ccc(-c3ccccc3)cc2)ccc2ccccc21.[I-]")
"430 nm"
>>> recorded_measurement("CN(C)c1ccc(C=Cc2cc[n+](C34CC5CC(CC(C5)C3)C4)cc2)cc1.[Br-]")
"380-540 nm"
>>> recorded_measurement("COc1ccc2c(ccc(C=CC=Cc3ccccc3[N+](=O)[O-])[n+]2C)c1.[I-]")
"360 nm"
>>> recorded_measurement("COc1ccc2c(ccc(C=Cc3ccc4ccc5cccc6ccc3c4c56)[n+]2C)c1.[I-]")
"480 nm"
>>> recorded_measurement("C[n+]1ccc(C=Cc2ccc3ccc4cccc5ccc2c3c45)c2ccccc21.[I-]")
"500 nm"
